Parameter: Bmax. Scope: all listed entries.
target: T1, full length human PAR-2 (human, UniProt P55085 26-397); experiment: MSD cell binding
T1 construct: overexpressed on HEK293-derived 293/D9 cells; also called 293/D9/hPAR-2rec cells
T1 sequence (P55085 26-397 G138A limits assumed): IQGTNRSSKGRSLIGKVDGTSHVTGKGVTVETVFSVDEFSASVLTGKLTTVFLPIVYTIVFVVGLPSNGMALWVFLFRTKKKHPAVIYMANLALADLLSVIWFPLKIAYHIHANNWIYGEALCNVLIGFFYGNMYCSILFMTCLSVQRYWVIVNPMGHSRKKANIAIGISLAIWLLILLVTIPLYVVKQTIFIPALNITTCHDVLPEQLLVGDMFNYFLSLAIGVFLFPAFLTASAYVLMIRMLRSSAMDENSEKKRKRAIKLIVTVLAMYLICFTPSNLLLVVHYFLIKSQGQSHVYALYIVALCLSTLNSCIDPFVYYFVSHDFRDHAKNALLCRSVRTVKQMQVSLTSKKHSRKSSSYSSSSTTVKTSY
Number only, in MSD Unit; omit the unit.

Recorded results for 2 binders are shown here.
H4H580P (antibody, human IgG4, V domains shown, also called H1H580P variable regions) VH: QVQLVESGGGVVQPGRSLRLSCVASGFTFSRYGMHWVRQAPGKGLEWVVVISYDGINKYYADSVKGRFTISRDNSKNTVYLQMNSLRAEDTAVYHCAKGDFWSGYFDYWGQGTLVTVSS VL: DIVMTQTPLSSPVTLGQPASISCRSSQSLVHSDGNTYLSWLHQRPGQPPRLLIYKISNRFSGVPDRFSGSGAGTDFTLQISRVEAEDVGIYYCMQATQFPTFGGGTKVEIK    30200
H4H579P (antibody, human IgG4, V domains shown, also called H1H579P variable regions) VH: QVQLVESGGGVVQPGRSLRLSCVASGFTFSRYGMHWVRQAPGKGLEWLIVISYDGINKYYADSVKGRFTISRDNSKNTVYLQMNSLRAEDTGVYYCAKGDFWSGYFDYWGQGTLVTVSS VL: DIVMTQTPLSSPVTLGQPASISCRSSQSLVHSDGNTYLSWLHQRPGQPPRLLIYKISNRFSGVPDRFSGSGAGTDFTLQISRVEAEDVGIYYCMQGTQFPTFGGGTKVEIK    25000

GET /value?item= H4H584P (antibody, human IgG4, V domains shown, also called H1H584P variable regions) VH: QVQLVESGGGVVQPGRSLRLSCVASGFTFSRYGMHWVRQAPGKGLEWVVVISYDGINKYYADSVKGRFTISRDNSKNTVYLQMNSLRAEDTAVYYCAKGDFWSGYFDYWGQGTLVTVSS VL: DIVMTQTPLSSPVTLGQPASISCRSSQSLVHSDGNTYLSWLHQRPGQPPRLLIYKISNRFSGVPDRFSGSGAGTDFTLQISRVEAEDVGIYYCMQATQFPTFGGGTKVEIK &field=Bmax returns 26000

GET /value?item= H4H588N (antibody, human IgG4, V domains shown, also called H2M588N variable regions) VH: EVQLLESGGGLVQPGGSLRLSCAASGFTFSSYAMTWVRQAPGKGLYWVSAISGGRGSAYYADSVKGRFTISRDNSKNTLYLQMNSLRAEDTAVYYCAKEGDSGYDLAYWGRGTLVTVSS VL: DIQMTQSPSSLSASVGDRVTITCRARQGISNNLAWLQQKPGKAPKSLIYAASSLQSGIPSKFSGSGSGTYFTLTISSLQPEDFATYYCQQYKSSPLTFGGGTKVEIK &field=Bmax returns 27500

Values compiled from patent US20110059095A1.
